MEASUREMENT_TARGET: Beta-lactamase SHV-1 (Klebsiella pneumoniae) (UniProt P0AD64)
Sequence (P0AD64 whole entry): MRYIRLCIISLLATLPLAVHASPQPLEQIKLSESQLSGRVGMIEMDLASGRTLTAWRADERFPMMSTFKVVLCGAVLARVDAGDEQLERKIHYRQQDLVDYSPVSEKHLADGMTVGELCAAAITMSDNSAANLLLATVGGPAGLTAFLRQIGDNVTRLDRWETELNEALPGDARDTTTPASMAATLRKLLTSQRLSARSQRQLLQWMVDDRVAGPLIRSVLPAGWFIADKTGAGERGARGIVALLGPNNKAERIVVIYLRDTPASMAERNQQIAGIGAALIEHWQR
METHOD_DESCRIPTION: Ratio of Kcat to Km of Klebsiella pneumoniae SHV1 assessed as drug hydrolysis by spectrophotometry relative to cephaloridine
Design: scale not given: the % may be the effect or the level left
OUTCOME_MEASURE: Activity

>  <CHEMICAL_SMILES>
CO/N=C(\C(=O)N[C@@H]1C(=O)N2C(C(=O)[O-])=C(C[N+]3(C)CCCC3)CS[C@H]12)c1csc(N)n1

>  <READING>
0.81%

$$$$
>  <CHEMICAL_SMILES>
CC1(C)S[C@@H]2[C@H](NC(=O)Cc3ccccc3)C(=O)N2[C@H]1C(=O)O

>  <READING>
2600%

$$$$
>  <CHEMICAL_SMILES>
CC(C)(O/N=C(\C(=O)N[C@@H]1C(=O)N2C(C(=O)[O-])=C(C[n+]3ccccc3)CS[C@H]12)c1csc(N)n1)C(=O)O

>  <READING>
0.00084%

$$$$
>  <CHEMICAL_SMILES>
Nc1nc(/C(=N/O)C(=O)N[C@@H]2C(=O)N3C(C(=O)O)=C(/C=C4\CCN([C@@H]5CCNC5)C4=O)CS[C@H]23)ns1

>  <READING>
7.4%

$$$$
